Test system: HIV-1 infection of TZM-bl cells
protocolDescription: HIV-1 infectivity enhancement assay, β-galactosidase luminescence
Assay type: cell-based
protocolConditions: HIV-1 infection relative to EF-C; Fig 23 plot, single data point, replicate 3
Kindly state Inf. rel. EF-C for each of the entries shown.
Number, no unit, nothing else.

Qu. Return Inf. rel. EF-C (reported value) for this substance: RVRVTVT
Ans. 0.06124

Qu. Return Inf. rel. EF-C (reported value) for this substance: KAKLTCT
Ans. 0.04527

Qu. Return Inf. rel. EF-C (reported value) for this substance: KFKFQFN
Ans. 0.005798

Qu. Return Inf. rel. EF-C (reported value) for this substance: CKAKAQANM
Ans. 0.01966

---

Kindly state Fibril for each of the entries shown.
Assay type: physicochemical
Design: key: 1 = fibrils present; 0 non-fibrillar structures
protocolConditions: TEM; 1 = fibrils present, 0 = non-fibrillar
Number, no unit, nothing else.

Qu. Return Fibril (reported value) for this substance: KIKIQINMW
Ans. 1

Qu. Return Fibril (reported value) for this substance: KFKFKFQF
Ans. 1

Qu. Return Fibril (reported value) for this substance: QCKFKFQFNMWQ
Ans. 1

Qu. Return Fibril (reported value) for this substance: CHLHLQL
Ans. 0

Qu. Return Fibril (reported value) for this substance: RGDSGGGGGGKIKIQIC
Ans. 1

Qu. Return Fibril (reported value) for this substance: RGECKFKFQF
Ans. 1

Qu. Return Fibril (reported value) for this substance: QCKIKIQINM
Ans. 1

Qu. Return Fibril (reported value) for this substance: FKFDKFKFDK
Ans. 0

Qu. Return Fibril (reported value) for this substance: CKAKAQANM
Ans. 0

Qu. Return Fibril (reported value) for this substance: KAKAQANMWQ
Ans. 0

Qu. Return Fibril (reported value) for this substance: HHHHKAKAKAKAWWWW
Ans. 0

Qu. Return Fibril (reported value) for this substance: KFKFQFFF
Ans. 1

---

protocolDescription: Zeta-potential measurement
Format: physicochemical
protocolConditions: mean, Figure 6C
API: label(entry) gives criterion met if the entry's Zeta-Potential / mV is strictly smaller than 10 mV; on equality or larger values it gives criterion not met.

Qu. Hi there! Is Zeta-Potential / mV for RIRFHIW below 10 mV, do you know?
Ans. criterion met

Qu. Hi there! Is Zeta-Potential / mV for CKIWIQIY below 10 mV, do you know?
Ans. criterion met

Qu. Hi there! Is Zeta-Potential / mV for KIKIWIW below 10 mV, do you know?
Ans. criterion not met

Qu. Hi there! Is Zeta-Potential / mV for KIWIWIW below 10 mV, do you know?
Ans. criterion not met

Qu. Hi there! Is Zeta-Potential / mV for RVRVTVT below 10 mV, do you know?
Ans. criterion met

Qu. Hi there! Is Zeta-Potential / mV for RINFWFW below 10 mV, do you know?
Ans. criterion not met

Qu. Hi there! Is Zeta-Potential / mV for CKFKFPF below 10 mV, do you know?
Ans. criterion met

Qu. Hi there! Is Zeta-Potential / mV for KAKLTCT below 10 mV, do you know?
Ans. criterion met

Qu. Hi there! Is Zeta-Potential / mV for KCQCQCQ below 10 mV, do you know?
Ans. criterion not met

Qu. Hi there! Is Zeta-Potential / mV for KLKLTLT below 10 mV, do you know?
Ans. criterion met

Qu. Hi there! Is Zeta-Potential / mV for RFWFWFW below 10 mV, do you know?
Ans. criterion not met

---

Kindly state Log10 Count Rate for each of the entries shown.
protocolDescription: Turbidity, derived count rate of scattered light
Assay type: physicochemical
protocolConditions: log10 of derived count rate of scattered light, Figure 6C
Number, no unit, nothing else.

Qu. Return Log10 Count Rate (reported value) for this substance: CRLRVGVS
Ans. 1.545

Qu. Return Log10 Count Rate (reported value) for this substance: KFQFNMW
Ans. 2.521

Qu. Return Log10 Count Rate (reported value) for this substance: KCQCQCQ
Ans. 4.183

Qu. Return Log10 Count Rate (reported value) for this substance: CRLSLSLS
Ans. 3.23

Qu. Return Log10 Count Rate (reported value) for this substance: KIWIWIW
Ans. 3.791

Qu. Return Log10 Count Rate (reported value) for this substance: RFWFWFW
Ans. 4.478

Qu. Return Log10 Count Rate (reported value) for this substance: RIRFHIW
Ans. 1.093

Qu. Return Log10 Count Rate (reported value) for this substance: CKIWIQIY
Ans. 3.265

Qu. Return Log10 Count Rate (reported value) for this substance: KAQCTLP
Ans. 1.988

Qu. Return Log10 Count Rate (reported value) for this substance: CKIKIWIW
Ans. 3.521

Qu. Return Log10 Count Rate (reported value) for this substance: KIKIWIW
Ans. 2.784

Qu. Return Log10 Count Rate (reported value) for this substance: KLKLTLT
Ans. 2.298

Qu. Return Log10 Count Rate (reported value) for this substance: CRFRFHFH
Ans. 2.634

Qu. Return Log10 Count Rate (reported value) for this substance: RINFWFW
Ans. 4.708

Qu. Return Log10 Count Rate (reported value) for this substance: RVRVTVT
Ans. 1.404

Qu. Return Log10 Count Rate (reported value) for this substance: KAKLTCT
Ans. 1.225

Qu. Return Log10 Count Rate (reported value) for this substance: RVHLGLG
Ans. 1.4523

Qu. Return Log10 Count Rate (reported value) for this substance: CKFKFPF
Ans. 2.156

---

protocolDescription: Turbidity, derived count rate of scattered light
Format: physicochemical
protocolConditions: category 1 / 0, no key given
propertyLabel: Zeta Count Rate Category
Number, no unit, nothing else.

Qu. Return Zeta Count Rate Category (reported value) for this substance: KIKIKIQI [TG13]
Ans. 1

Qu. Return Zeta Count Rate Category (reported value) for this substance: HHHHKAKAKAKAYYYY [TM10]
Ans. 1

Qu. Return Zeta Count Rate Category (reported value) for this substance: CKIKQII [MG4a]
Ans. 0

Qu. Return Zeta Count Rate Category (reported value) for this substance: CKFKQFF [CK15]
Ans. 0

Qu. Return Zeta Count Rate Category (reported value) for this substance: RGDKIKIQINM [MG8a / CN17]
Ans. 0

Qu. Return Zeta Count Rate Category (reported value) for this substance: KFKQFFNMWQ [JG5]
Ans. 1

Qu. Return Zeta Count Rate Category (reported value) for this substance: RIRIQIC [PS07]
Ans. 1

Qu. Return Zeta Count Rate Category (reported value) for this substance: CKIKQIINM [BL1]
Ans. 1

Qu. Return Zeta Count Rate Category (reported value) for this substance: KLKQLL [KM27 / psis14]
Ans. 1

Qu. Return Zeta Count Rate Category (reported value) for this substance: KVKVQVV [TG2]
Ans. 0

Qu. Return Zeta Count Rate Category (reported value) for this substance: RGEKIKIQINM [CN18]
Ans. 1

Qu. Return Zeta Count Rate Category (reported value) for this substance: KLKLQLL [TG4 / (KM2)]
Ans. 0

Qu. Return Zeta Count Rate Category (reported value) for this substance: HHHHKIKIKIKIYYYY [TM6]
Ans. 1

Qu. Return Zeta Count Rate Category (reported value) for this substance: RGDCKFKFQF [TM64/ CN15]
Ans. 1

Qu. Return Zeta Count Rate Category (reported value) for this substance: CKFKQFFNM [CK14]
Ans. 1

Qu. Return Zeta Count Rate Category (reported value) for this substance: HLHLPLL [CN14]
Ans. 1

Qu. Return Zeta Count Rate Category (reported value) for this substance: HHHHKIKIKIKIWWWW [TM4]
Ans. 1

---

Test system: HIV-1 infection of TZM-bl cells
protocolDescription: HIV-1 infectivity enhancement assay, β-galactosidase luminescence
Type: cell-based
protocolConditions: Fig. S7 panel A (plotted against β-sheet content); Log10 infection relative to EF-C, TZM-bl cells; asymmetric std dev errors
propertyLabel: Log Infectivity
Number, no unit, nothing else.

Qu. Check HIV-1 infection of TZM-bl cells data and give Log Infectivity for QCKIKIQI .
Ans. -0.9508

Qu. Check HIV-1 infection of TZM-bl cells data and give Log Infectivity for CKAKAQANMWQ .
Ans. -1.359

Qu. Check HIV-1 infection of TZM-bl cells data and give Log Infectivity for QCKFKFQFNMWQ .
Ans. -0.2086

Qu. Check HIV-1 infection of TZM-bl cells data and give Log Infectivity for KIKIQIMQWN .
Ans. -0.1454

Qu. Check HIV-1 infection of TZM-bl cells data and give Log Infectivity for NMWQKVGTPL .
Ans. -1.607

Qu. Check HIV-1 infection of TZM-bl cells data and give Log Infectivity for KWKWQW .
Ans. -1.838

Qu. Check HIV-1 infection of TZM-bl cells data and give Log Infectivity for RGDCKIKIQINM .
Ans. -0.6272

Qu. Check HIV-1 infection of TZM-bl cells data and give Log Infectivity for HGDKCHGDKC .
Ans. -1.991

Qu. Check HIV-1 infection of TZM-bl cells data and give Log Infectivity for CEFEFQF .
Ans. -2.283

Qu. Check HIV-1 infection of TZM-bl cells data and give Log Infectivity for ILKNLSRSRKIKIQINMWQ .
Ans. -0.4939

Qu. Check HIV-1 infection of TZM-bl cells data and give Log Infectivity for NMWQKIKIQI .
Ans. -0.6877

Qu. Check HIV-1 infection of TZM-bl cells data and give Log Infectivity for KVKVQVVV .
Ans. -1.455

Qu. Check HIV-1 infection of TZM-bl cells data and give Log Infectivity for KIKIKIQINMWQ .
Ans. -0.1048

Qu. Check HIV-1 infection of TZM-bl cells data and give Log Infectivity for EIEIQINM .
Ans. -1.44

Qu. Check HIV-1 infection of TZM-bl cells data and give Log Infectivity for QCKFKFQF .
Ans. -0.1152

Qu. Check HIV-1 infection of TZM-bl cells data and give Log Infectivity for CSISIQI .
Ans. -1.252

Qu. Check HIV-1 infection of TZM-bl cells data and give Log Infectivity for EIKIQINM .
Ans. -1.001

Qu. Check HIV-1 infection of TZM-bl cells data and give Log Infectivity for RPRGLLLGNLR .
Ans. -1.3163

Qu. Check HIV-1 infection of TZM-bl cells data and give Log Infectivity for CKYKYQY .
Ans. -1.3903

Qu. Check HIV-1 infection of TZM-bl cells data and give Log Infectivity for KIKIQINMW .
Ans. 0.3339

Qu. Check HIV-1 infection of TZM-bl cells data and give Log Infectivity for KIKIKIKIYYYY .
Ans. 0.1402
